SYSTEM_TESTED: EGFR(D770_N771insSVD) expressing Ba/F3 stable cell line (Homo sapiens, UniProt P00533, DUP768-770, cells depend on it)
Sequence (P00533 with tags, fused parts or gaps DUP768-770): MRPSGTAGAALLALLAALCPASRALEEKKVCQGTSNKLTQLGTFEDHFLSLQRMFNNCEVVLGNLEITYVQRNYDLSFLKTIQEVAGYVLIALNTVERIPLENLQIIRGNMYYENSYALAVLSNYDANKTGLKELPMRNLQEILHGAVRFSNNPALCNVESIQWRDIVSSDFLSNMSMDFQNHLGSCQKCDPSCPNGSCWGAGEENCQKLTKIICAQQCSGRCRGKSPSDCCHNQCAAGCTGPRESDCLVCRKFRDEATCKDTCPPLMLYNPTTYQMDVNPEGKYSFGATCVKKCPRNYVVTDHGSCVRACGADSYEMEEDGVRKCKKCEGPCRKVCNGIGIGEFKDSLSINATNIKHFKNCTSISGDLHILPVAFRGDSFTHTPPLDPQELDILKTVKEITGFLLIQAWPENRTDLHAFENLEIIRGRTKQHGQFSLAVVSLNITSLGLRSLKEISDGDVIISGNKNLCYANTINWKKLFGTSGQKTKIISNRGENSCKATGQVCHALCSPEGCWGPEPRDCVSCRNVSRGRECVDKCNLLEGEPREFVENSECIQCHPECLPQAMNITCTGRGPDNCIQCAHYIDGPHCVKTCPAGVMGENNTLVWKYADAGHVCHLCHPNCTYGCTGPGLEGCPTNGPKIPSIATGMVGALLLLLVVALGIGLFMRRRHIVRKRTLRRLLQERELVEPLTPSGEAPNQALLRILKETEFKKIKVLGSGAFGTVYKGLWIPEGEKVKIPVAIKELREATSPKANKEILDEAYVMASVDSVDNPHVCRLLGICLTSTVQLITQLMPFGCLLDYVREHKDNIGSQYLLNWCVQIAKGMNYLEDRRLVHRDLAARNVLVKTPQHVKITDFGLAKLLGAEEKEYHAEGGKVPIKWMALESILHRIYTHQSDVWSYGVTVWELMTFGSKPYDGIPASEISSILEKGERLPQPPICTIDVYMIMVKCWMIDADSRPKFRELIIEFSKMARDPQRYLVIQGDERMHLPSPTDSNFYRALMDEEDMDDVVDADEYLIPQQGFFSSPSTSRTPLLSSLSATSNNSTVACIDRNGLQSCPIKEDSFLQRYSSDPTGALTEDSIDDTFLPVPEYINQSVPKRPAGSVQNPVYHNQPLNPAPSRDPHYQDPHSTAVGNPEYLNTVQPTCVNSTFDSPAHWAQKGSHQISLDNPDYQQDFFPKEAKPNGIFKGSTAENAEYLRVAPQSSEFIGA
ASSAY_OVERVIEW: Cellular proliferation (Alamar Blue) assay, EGFR D770_N771insSVD Ba/F3
Format: cell-based
CONDITION_CONTEXT: 72 hr, read-out: D770 IC50
Structures can show the parent of a compound that is named as a salt.

{"COMPOUND": "C=C(F)C(=O)N1CCCC(Nc2nc(Nc3cnn(C)c3)ncc2Cl)C1 (stereo not shown)", "QUALIFIER": ">", "GI50 (nM)": 10000}
{"COMPOUND": "C=CC(=O)Nc1ccc(F)c(Nc2nc(Nc3cnn(C)c3)ncc2-c2ccncc2)c1", "QUALIFIER": "=", "GI50 (nM)": 254}
{"COMPOUND": "C=CC(=O)Nc1cccc(Oc2nc(Nc3cnn(C)c3)ncc2-c2ccc(F)nc2)c1", "QUALIFIER": "=", "GI50 (nM)": 100}
{"COMPOUND": "C=CC(=O)Nc1cccc(Oc2nc(NC3CC3)ncc2-c2ccc(C(F)(F)F)cc2)c1", "QUALIFIER": ">", "GI50 (nM)": 10000}
{"COMPOUND": "CN(C)C/C=C/C(=O)Nc1ccc(C#Cc2ccccc2)c(Nc2nc(Nc3cnn(C)c3)ncc2Cl)c1", "QUALIFIER": ">", "GI50 (nM)": 10000}
{"COMPOUND": "C=CC(=O)Nc1ccc(F)c(Nc2nc(Nc3cc(C)sn3)ncc2-c2ccc(C(F)(F)F)cc2)c1", "QUALIFIER": "=", "GI50 (nM)": 884}
{"COMPOUND": "C=CC(=O)Nc1ccc(F)c(Nc2nc(Nc3ccc(CN(C)C)cc3)ncc2-c2ccc(C(F)(F)F)cc2)c1 [Compound 45, trifluoroacetate]", "QUALIFIER": "=", "GI50 (nM)": 105}
{"COMPOUND": "[2H]C([2H])([2H])n1cc(Nc2ncc(-c3ccc(C(F)(F)F)cc3)c(Nc3cc(NC(=O)C=C)ccc3F)n2)cn1", "QUALIFIER": "=", "GI50 (nM)": 98}
{"COMPOUND": "C=CC(=O)Nc1ccc(OC)c(Oc2nc(Nc3cnn(C4CCN(C)CC4)c3)ncc2Cl)c1", "QUALIFIER": ">", "GI50 (nM)": 10000}
{"COMPOUND": "C=CC(=O)Nc1ccc(F)c(Nc2nc(Nc3cnn(C)c3)ncc2-c2ccc(C(F)F)cc2)c1", "QUALIFIER": "=", "GI50 (nM)": 37}
{"COMPOUND": "C=CC(=O)Nc1ccc(F)c(Nc2nc(Nc3cn(C)nc3Cl)ncc2-c2ccc(C(F)(F)F)cc2)c1 [Compound 245]", "QUALIFIER": "=", "GI50 (nM)": 91}
{"COMPOUND": "C=CC(=O)Nc1ccc(F)c(Nc2nc(Nc3cnn(C)c3)ncc2-c2ccnc(OC)c2)c1", "QUALIFIER": "=", "GI50 (nM)": 101}
{"COMPOUND": "C=CC(=O)Nc1ccc(F)c(Nc2nc(Nc3cnn(C)c3)ncc2C2=CCN(C)CC2)c1", "QUALIFIER": "=", "GI50 (nM)": 1840}
{"COMPOUND": "Cc1cc(Nc2ncc(Cl)c(Nc3cc(NC(=O)/C=C/CN(C)C)ccc3F)n2)sn1", "QUALIFIER": "=", "GI50 (nM)": 2620}
{"COMPOUND": "CN(C)C/C=C/C(=O)Nc1cccc(Nc2nc(Nc3cn(C)nc3Cl)ncc2-c2ccc(C(F)(F)F)cc2)c1", "QUALIFIER": "=", "GI50 (nM)": 873}
{"COMPOUND": "C=CC(=O)Nc1ccc(F)c(Nc2nc(Nc3ccnn3C)ncc2Cl)c1", "QUALIFIER": "=", "GI50 (nM)": 9960}
